These entries and their values trace back to patent US6555523B1.

System: HIV Merck 52-52
Assay: Anti-HIV assay in fresh human PBL (RT activity), Protocol D1
Conditions: Human immunodeficiency virus 1, PBMC
QUANTITY NAME: IC50 (µM)
Give your result in µM as a bare value.

The reported IC50 of the compound COc1ccc(-c2cc(=O)c3c(OC)c(OC)c(OC)c(OC)c3o2)cc1 was 18.2

---

Test: Drug cytotoxicity by XTT in PBL, Protocol D1
Conditions: human, TC50, PBMC, printed on each HIV isolate line
QUANTITY NAME: CC50 (µM)
Write the answer as a number in µM, unit excluded.

CC50 recorded for this molecule, COc1ccc([C@@H]2CC(=O)c3c(O)cc(O)cc3O2)cc1O [Hesperetin, hesperetin] , is 190

---

Tested on: parainfluenza HA-1
Assay: CPE-inhibition (microscopic) assay, Protocol A2
Type: cell-based, parainfluenza virus
Conditions: HEp-2, cell Hep2 (cell blank for 3-(4′-bromophenyl) coumarin)
QUANTITY NAME: IC50 (µM)
Report as a plain number; the unit µM is understood.

Use the examples below as a reference point.
compound="COc1cc2oc(-c3ccc(O)c(O)c3)cc(=O)c2c(O)c1OC [Cirsiliol, 6,7′-dimethoxy-5,3′,4′-trihydroxyflavone]" quantity_name=IC50 unit_name=µM value_measured=7.8
compound=O=c1oc2ccccc2cc1-c1ccc(Br)cc1 quantity_name=IC50 unit_name=µM value_measured=6.3

Lab note: C[C@@H]1O[C@@H](O[C@H]2[C@H](Oc3cc(O)c4c(c3)O[C@H](c3ccc(O)cc3)CC4=O)O[C@H](CO)[C@@H](O)[C@@H]2O)[C@H](O)[C@H](O)[C@H]1O gave IC50 of 25

---

Assay: in vitro
Conditions: human
QUANTITY NAME: CC50 (µM)
API: value field is a number in µM; no unit string.

Consider C[C@@H]1O[C@@H](O[C@H]2[C@H](Oc3cc(O)c4c(c3)O[C@H](c3ccc(O)cc3)CC4=O)O[C@H](CO)[C@@H](O)[C@@H]2O)[C@H](O)[C@H](O)[C@H]1O . Its measured CC50 is 100

---

Assay: Drug cytotoxicity by XTT in monocyte-macrophages, Protocol D2
Format: cell-based
Settings: human; macrophage; D2; naringin solubilised in 35% EtOH; read-out: TC50
QUANTITY NAME: CC50 at 7 days

Memo: C[C@@H]1O[C@@H](O[C@H]2[C@H](Oc3cc(O)c4c(c3)O[C@H](c3ccc(O)cc3)CC4=O)O[C@H](CO)[C@@H](O)[C@@H]2O)[C@H](O)[C@H](O)[C@H]1O [Naringin] , reported CC50 at 7 days: > 100 µM

---

Test system: HIV Merck 1002-60
Assay: Anti-HIV assay in fresh human PBL (RT activity), Protocol D1
Conditions: Human immunodeficiency virus 1, PBMC
QUANTITY NAME: pIC50
Expect pIC50 as a plain number equal to -log10 of the molar concentration.

The value of pIC50 measured for the compound COc1ccc(-c2cc(=O)c3c(OC)c(OC)c(OC)c(OC)c3o2)cc1 turned out to be 5.01

---

Test: in vitro
Settings: human, TC50
CC50 for assorted compounds
Record the value in µM, omitting the unit from your answer.

compound="O=c1cc(-c2ccccc2)oc2ccc(O)cc12 [6-Hydroxyflavone, 6-hydroxyflavone]" quantity_name=CC50 unit_name=µM value_measured=53.9

Looking up O=c1cc(-c2ccccc2)oc2ccccc12 , I found its CC50 recorded as 173
